measuredQuantity: melting point

compound	measuredQuantity	result
C[C@H]1C[C@@H](Nc2ccccc2)c2ccccc2N1C(=O)c1ccncc1 (relative stereo)	melting point	121 °C
CCOC(=O)c1c(C(F)(F)F)nc(C(F)(F)Cl)c(C(=O)OC)c1NC(C)C	melting point	43.5 to 45 °C
COCC1CC(c2ccc3ccccc3c2C#N)=NO1 (centres undefined)	melting point	110 to 111 °C
COc1ccc2nc(C3(c4ccc(S(N)(=O)=O)cc4)C=C(C(F)F)NN3)sc2c1 (centres undefined)	melting point	211 to 212 °C
CC(Nc1nc(Oc2cccc3sc(N)nc23)cc(-c2ccc(C(F)(F)F)cc2)n1)c1ccc(F)cc1 (centres undefined)	melting point	231 °C

Request: Look up melting point: O=S1(=O)N=C2CCCN2c2ccc(Oc3cccc(O)c3)cc21
Result: > 300 °C

Request: Same thing, different compound: COc1ccccc1-n1cc(-c2ccccc2)c(OCC(=O)O)n1
Result: 170 to 174 °C

Request: # iterate: CCOc1ccc2c(c1)C(=O)OC2C(Cl)(Cl)Cl (centres undefined)
Result: 112 to 114 °C

Request: Then FC(F)(F)c1cc(-c2ccc(Cl)cc2)nc2c(-c3cccnc3)cnn12 ?
Result: 188 °C
